I'd appreciate it if you could supply CC50 at 7 days values for the items below.
test: In vitro cytotoxicity, MTT cell viability assay in HepG2 cells; assay type: cell-based; conditions: human, Cytotoxicity CC50

Reported CC50 at 7 days for Cc1cc(NC(=O)c2ccc(F)c(C(Cl)(Cl)C(=O)N3CC=C(B(O)O)CC3)c2)ccc1F was > 30 µM

Reported CC50 at 7 days for Cc1cc(NC(=O)c2cc(C(C)(O)C(=O)NC(C)(C)C)cn2C)ccc1F (stereo not drawn) was 5 to 30 µM

Reported CC50 at 7 days for Cc1cc(NC(=O)c2ccc(F)c(C(F)(F)C(=O)N3[C@@H]4COC[C@H]3CN(C(=O)OC(C)(C)C)C4)c2)ccc1F was 5 to 30 µM

Reported CC50 at 7 days for Cc1cc(NC(=O)c2ccn(C)c2C(F)(F)C(=O)NC(C)(C)CO)ccc1F was > 30 µM

Reported CC50 at 7 days for Cc1cc(NC(=O)c2cn(C)c(C(F)(F)C(=O)NC(C)(C)C)c2C)ccc1F was > 30 µM

Reported CC50 at 7 days for CC(C)n1cc(NC(=O)c2ccc(F)c(C(F)(F)C(=O)N3CCC(O)CC3)c2)cn1 was > 30 µM

Reported CC50 at 7 days for Cc1cc(NC(=O)c2ccc(F)c(C(F)(F)C(=O)N3CCC(N)C(C)(C)C3)n2)ccc1F (stereo not drawn) was 5 to 30 µM

Reported CC50 at 7 days for Cc1cc(NC(=O)c2ccc(F)c(C(F)(F)C(=O)N3CCc4cn[nH]c4C3)c2)ccc1F was 5 to 30 µM

Reported CC50 at 7 days for O=C(Nc1ccc(F)c(F)c1)c1ccc(F)c(C(F)(F)C(=O)NCC2COCCO2)c1 (stereo not drawn) was 5 to 30 µM

Reported CC50 at 7 days for O=C(Nc1ccc(F)c(F)c1)c1ccc(F)c(C(F)(F)C(=O)N2CC[C@H](O)C2)c1 was 5 to 30 µM

Reported CC50 at 7 days for CCC(C)NC(=O)C(F)(F)c1cc(C(=O)Nc2ccc(F)c(F)c2)ccc1F (stereo not drawn) was 5 to 30 µM

Reported CC50 at 7 days for Cc1cc(NC(=O)c2ccc(F)c(C(F)(F)C(=O)NC34CCC(NC(=O)OC(C)(C)C)(CC3)C4)c2)ccc1F was < 5 µM

Reported CC50 at 7 days for Cn1cc(NC(=O)c2ccc(F)c(C(F)(F)C(=O)N3[C@@H]4CC[C@H]3C[C@@H](O)C4)c2)cn1 was > 30 µM

Reported CC50 at 7 days for O=C(Nc1ccc(F)c(Br)c1)c1ccc(F)c(C(F)(F)C(=O)N2CCC(O)(CO)CC2)c1 was 5 to 30 µM

Reported CC50 at 7 days for Cc1cc(NC(=O)c2cccc(C(F)(F)C(=O)N3[C@@H]4CC[C@H]3C[C@H](O)C4)c2F)ccc1F was 5 to 30 µM

Reported CC50 at 7 days for Cc1cc(NC(=O)c2ccnc(C(F)(F)C(=O)N3[C@@H]4CC[C@H]3C[C@H](C(=O)O)C4)c2)ccc1F was > 30 µM

Reported CC50 at 7 days for Cc1cc(NC(=O)c2ccc(F)c(C(F)(F)C(=O)N3[C@@H]4CC[C@H]3CC(O)(CC(N)=O)C4)c2)ccc1F (stereo partly drawn) was 5 to 30 µM

Reported CC50 at 7 days for Cc1cc(NC(=O)c2ccc(F)c(C(F)(F)C(=O)N3CCc4nc(N)sc4CC3)c2)ccc1F was 5 to 30 µM

Reported CC50 at 7 days for O=C(Nc1ccc(F)cn1)c1ccc(Cl)c(C(F)(F)C(=O)N2CCC(O)CC2)c1 was > 30 µM

Reported CC50 at 7 days for COC(=O)N1C[C@H]2COC[C@@H](C1)N2C(=O)C(F)(F)c1cc(C(=O)Nc2ccc(F)c(C)c2)ccc1F was 5 to 30 µM

Reported CC50 at 7 days for O=C(Nc1ccc(F)c(F)c1)c1ccc(F)c(C(F)C(=O)N2CCC(O)CC2)c1 (stereo not drawn) was 5 to 30 µM

Reported CC50 at 7 days for O=C(Nc1ccc(F)c(F)c1)c1ccc(F)c(C(F)(F)C(=O)N(CCO)CCO)c1 was > 30 µM

Reported CC50 at 7 days for Cc1cc(NC(=O)c2cc(C(F)(F)C(=O)N[C@H]3CC[C@@H](O)CC3)n(C)c2)ccc1F was > 30 µM

Reported CC50 at 7 days for Cc1cc(NC(=O)c2ccc(F)c(C(F)(F)C(=O)N[C@H]3CCCC[C@@H]3O)c2)ccc1F was > 30 µM

Reported CC50 at 7 days for Cc1cc(NC(=O)c2ccc(F)c(C(F)(F)C(=O)N3CCC(C)(O)CC3)c2)ccc1F was 5 to 30 µM

Reported CC50 at 7 days for Cc1cc(NC(=O)c2ccc(F)c(C(F)(F)C(=O)N3C4CC[C@@H]3C[C@H](NS(C)(=O)=O)C4)c2)ccc1F was 5 to 30 µM

Reported CC50 at 7 days for Cc1cc(NC(=O)c2ccc(F)c(C(F)(F)C(=O)N3[C@@H]4CCC[C@H]3C[C@H](NS(C)(=O)=O)C4)c2)ccc1F was 5 to 30 µM

Reported CC50 at 7 days for CC(C)n1cc(NC(=O)c2ccc(F)c(C(F)(F)C(=O)N3CCC(O)(CO)CC3)c2)cn1 was > 30 µM

Reported CC50 at 7 days for O=C(Nc1ccc(F)c(Cl)c1)c1ccc(F)c(C(F)(F)C(=O)N2CCC(O)C(F)(F)C2)c1 (stereo not drawn) was 5 to 30 µM

Reported CC50 at 7 days for Cc1cc(NC(=O)c2ccc(F)c(C(F)(F)C(=O)N3[C@@H]4COC[C@H]3CC(O)C4)c2)ccc1F (stereo partly drawn) was 5 to 30 µM

###

assay: In vitro cytotoxicity, MTT cell viability assay in HepG2 cells; format: cell-based; conditions: human, Cytotoxicity CC50
Experimental readout: CC50 at 7 days

Reported CC50 at 7 days for Cc1cc(NC(=O)c2ccc(F)c(C(F)(F)C(=O)N3CCC(B(O)O)CC3)c2)ccc1F was 5 to 30 µM

Reported CC50 at 7 days for Cc1ccc(C(=O)Nc2ccc(F)c(F)c2)cc1C(F)(F)C(=O)N1CCC(O)CC1 was 5 to 30 µM

Reported CC50 at 7 days for Cc1cc(NC(=O)c2ccc(F)c(C(F)(F)C(=O)N3CCc4[nH]cnc4C3)c2)ccc1F was > 30 µM

Reported CC50 at 7 days for O=C(Nc1cc(F)c(F)c(F)c1)c1ccc(Cl)c(C(F)(F)C(=O)N2C3CC[C@@H]2C[C@@H](O)C3)c1 was 5 to 30 µM

Reported CC50 at 7 days for Cc1cc(NC(=O)c2ccc(F)c(C(F)(F)C(=O)NC34CCC(N)(CC3)C4)c2)ccc1F was > 30 µM

Reported CC50 at 7 days for O=C(Nc1ccc(F)c(Cl)c1)c1ccc(F)c(C(F)(F)C(=O)N2[C@@H]3CC[C@H]2C[C@H](O)C3)c1 was 5 to 30 µM

Reported CC50 at 7 days for CC(C)(C)NC(=O)C(O)c1cc(C(=O)Nc2ccc(F)c(F)c2)ccc1F (stereo not drawn) was 5 to 30 µM

Reported CC50 at 7 days for Cc1cc(NC(=O)c2ccc(F)c(C(F)(F)C(=O)N3CCC(C(=O)O)CC3)c2)ccc1F was > 30 µM

Reported CC50 at 7 days for Cc1cc(NC(=O)c2ccc(F)c(C(F)(F)C(=O)NC34CCC(O)(CC3)C4)c2)ccc1F was > 30 µM

Reported CC50 at 7 days for Cc1cc(NC(=O)c2ccc(Cl)c(C(F)(F)C(=O)N3CC[C@@H](O)[C@@H](O)C3)c2)ccc1F was > 30 µM

Reported CC50 at 7 days for Cc1cc(NC(=O)c2ccc(F)c(C(F)(F)C(=O)N3[C@H](C)CN(S(=O)(=O)c4cccnc4)C[C@@H]3C)c2)ccc1F was 5 to 30 µM

Reported CC50 at 7 days for O=C(Nc1ccnc(Cl)c1)c1ccc(F)c(C(F)(F)C(=O)N2CCC(O)(CO)CC2)c1 was 5 to 30 µM

Reported CC50 at 7 days for Cc1cc(NC(=O)c2cc(C(O)C(=O)NC(C)(C)C)cn2C)ccc1F (stereo not drawn) was > 30 µM

Reported CC50 at 7 days for Cc1cc(NC(=O)c2ccc(F)c(C(F)(F)C(=O)N3[C@@H]4COC[C@H]3C[C@H](NS(C)(=O)=O)C4)c2)ccc1F was 5 to 30 µM

Reported CC50 at 7 days for O=C(Nc1ccc(F)cc1Cl)c1ccc(Cl)c(C(F)(F)C(=O)N2CCC(O)CC2)c1 was > 30 µM

Reported CC50 at 7 days for CN(CCCO)C(=O)C(F)(F)c1cc(C(=O)Nc2ccc(F)c(F)c2)ccc1F was > 30 µM

Reported CC50 at 7 days for Cc1cc(NC(=O)c2ccc(F)c(C(F)(F)C(=O)N3[C@@H]4CCC[C@H]3[C@H](O)C4)c2)ccc1F was 5 to 30 µM

Reported CC50 at 7 days for Cc1cc(NC(=O)c2ccc(F)c(C(F)(F)C(=O)N3[C@@H]4CCC[C@H]3C[C@@H](NS(C)(=O)=O)C4)c2)ccc1F was > 30 µM

Reported CC50 at 7 days for Cc1cc(NC(=O)c2ccc(F)c(C(F)(F)C(=O)N3[C@@H]4CCC[C@H]3C[C@H](N)C4)c2)ccc1F was 5 to 30 µM

Reported CC50 at 7 days for Cc1cc(NC(=O)c2ccc(F)c(C(F)(F)C(=O)N3[C@@H]4CCC[C@H]3C[C@H](O)C4)c2)ccc1F was 5 to 30 µM

Reported CC50 at 7 days for Cc1cc(NC(=O)c2ccn(C)c2C(F)(F)C(=O)NC(C)(C)C)ccc1F was > 30 µM

Reported CC50 at 7 days for O=C(Nc1ccc(F)cc1)c1ccc(Cl)c(C(F)(F)C(=O)N2CCC(O)CC2)c1 was > 30 µM

Reported CC50 at 7 days for O=C(Nc1ccc(F)c(F)c1)c1ccc(F)c(C(F)(F)C(=O)N2CCC(O)CC2)c1 was 5 to 30 µM

Reported CC50 at 7 days for Cc1ccc(C(=O)Nc2ccc(F)c(F)c2)cc1C(F)(F)C(=O)NC(C)C was > 30 µM

Reported CC50 at 7 days for Cc1cc(NC(=O)c2ccc(F)c(C(F)(F)C(=O)N3CCC(NS(C)(=O)=O)CC3)c2)ccc1F was 5 to 30 µM

Reported CC50 at 7 days for Cc1ccc(C(=O)Nc2ccc(F)c(Cl)c2)cc1C(F)(F)C(=O)N1[C@@H]2CC[C@H]1C[C@H](O)C2 was 5 to 30 µM

Reported CC50 at 7 days for Cc1cc(NC(=O)c2ccc(F)c(C(F)(F)C(=O)N3Cc4sc(N)nc4C(C)(C)C3)c2)ccc1F was 5 to 30 µM

Reported CC50 at 7 days for CC[C@@H](C)NC(=O)C(F)(F)c1c(C(=O)Nc2ccc(F)c(C)c2)ccn1C was > 30 µM

Reported CC50 at 7 days for O=C(Nc1ccc(F)c(F)c1)c1ccc(F)c(C(F)(F)C(=O)NC2CCOCC2)c1 was 5 to 30 µM

Reported CC50 at 7 days for CCn1cc(C(=O)Nc2ccc(F)c(C)c2)cc1C(F)(F)C(=O)NC(C)(C)C was > 30 µM
